- Target: T1, human IL-33 (R&D Systems, #3625-IL-010/CF) (human, UniProt O95760 112-270)
- T1 construct: also called hIL-33; huIL-33
- T1 sequence (looked up): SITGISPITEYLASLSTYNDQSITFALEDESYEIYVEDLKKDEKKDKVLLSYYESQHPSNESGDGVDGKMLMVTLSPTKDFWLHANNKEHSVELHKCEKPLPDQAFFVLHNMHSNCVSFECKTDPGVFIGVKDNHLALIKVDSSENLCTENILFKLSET
- Assay Name: SPR Biacore T200, 37 C
Quantity Kind: t1/2 (min)
Please reply with the bare figure in min and do not write the unit itself.

| Binder | Quantity Kind | Unit Descriptor | Recorded Value |
| --- | --- | --- | --- |
| H1M9559N (antibody, IgG1, V domains shown, also called RG1) VH: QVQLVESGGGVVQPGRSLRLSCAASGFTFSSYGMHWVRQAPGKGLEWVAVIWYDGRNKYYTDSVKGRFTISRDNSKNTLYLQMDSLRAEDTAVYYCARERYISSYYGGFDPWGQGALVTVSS VL: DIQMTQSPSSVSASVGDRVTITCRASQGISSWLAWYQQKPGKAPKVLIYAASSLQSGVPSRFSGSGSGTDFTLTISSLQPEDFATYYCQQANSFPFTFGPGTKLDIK | t1/2 | min | 13 |

Per the records, this binder ( H4H9659P (antibody, IgG4, V domains shown, also called RG7) VH: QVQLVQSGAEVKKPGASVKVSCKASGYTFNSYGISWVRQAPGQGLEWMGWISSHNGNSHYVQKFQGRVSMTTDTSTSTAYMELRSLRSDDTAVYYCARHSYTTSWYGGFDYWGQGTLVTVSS VL: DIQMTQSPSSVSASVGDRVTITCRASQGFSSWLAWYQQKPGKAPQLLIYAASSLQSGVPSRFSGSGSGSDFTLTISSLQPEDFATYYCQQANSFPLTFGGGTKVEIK ) has t1/2 equal to 23

Per the records, this binder ( 10C12.38.H6.87Y.58I IgG4 (antibody, V domains shown, also called anti-IL33 10C12.38.H6.87Y.58I IgG4) VH: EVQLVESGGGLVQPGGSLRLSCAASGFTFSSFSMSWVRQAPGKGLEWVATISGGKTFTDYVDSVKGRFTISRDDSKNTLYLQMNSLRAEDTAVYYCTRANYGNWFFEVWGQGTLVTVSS VL: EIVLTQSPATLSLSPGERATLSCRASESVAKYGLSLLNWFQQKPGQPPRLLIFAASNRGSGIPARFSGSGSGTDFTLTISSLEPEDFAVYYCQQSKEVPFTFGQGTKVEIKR ) has t1/2 equal to 21
